- Test system: thyroid hormone receptor (endogenous TRα and TRβ)
- Design: species or system GH3-TRE-Luc (rat pituitary); GH3-TRE-Luc luciferase reporter transactivation, agonist mode, qHTS; RXR ligands can also activate indirectly
- condition: read-out: TR_LUC_GH3_Agonist_AC50, agonist mode, primary qHTS, 24 h
Structures can show the parent of a compound that is named as a salt. The full ranking holds about 7,300 compounds; the median of “AC50” is about 90,000 nM, and the lowest 2% start at about 20,000 nM. This is one part of the list.
Entries and their AC50 values follow.
quantity: AC50 (µM)

# compound, quantity, experimental result
records = [
    ("Cc1cc(NC(=O)C(=O)O)cc(C)c1Oc1ccc(O)c2c1CCC2", "AC50", 0.00147),
    ("NCC(=O)CCC(=O)O [Aminolevulinic acid hydrochloride]", "AC50", 28.7),
    ("COc1ccc(OC)c(C(O)C(C)N)c1 (stereo not drawn) [Methoxamine hydrochloride]", "AC50", 32),
    ("C[C@H](CCC(=O)NCC(=O)O)[C@H]1CC[C@H]2[C@@H]3[C@H](O)C[C@@H]4C[C@H](O)CC[C@]4(C)[C@H]3C[C@H](O)[C@]12C", "AC50", 51.8),
    ("C[C@]12CC[C@H]3C(=CCc4cc(O)ccc43)[C@@H]1CCC2=O", "AC50", 3.41),
    ("CC1=C(/C=C/C(C)=C/C=C/C(C)=C/C(=O)O)C(C)(C)CCC1 [all trans-Retinoic acid]", "AC50", 0.319),
]
